Values compiled from patent EP4722213A1.

Molecular target: SOS1 (Homo sapiens)
Sequence (Q07889 1-1333): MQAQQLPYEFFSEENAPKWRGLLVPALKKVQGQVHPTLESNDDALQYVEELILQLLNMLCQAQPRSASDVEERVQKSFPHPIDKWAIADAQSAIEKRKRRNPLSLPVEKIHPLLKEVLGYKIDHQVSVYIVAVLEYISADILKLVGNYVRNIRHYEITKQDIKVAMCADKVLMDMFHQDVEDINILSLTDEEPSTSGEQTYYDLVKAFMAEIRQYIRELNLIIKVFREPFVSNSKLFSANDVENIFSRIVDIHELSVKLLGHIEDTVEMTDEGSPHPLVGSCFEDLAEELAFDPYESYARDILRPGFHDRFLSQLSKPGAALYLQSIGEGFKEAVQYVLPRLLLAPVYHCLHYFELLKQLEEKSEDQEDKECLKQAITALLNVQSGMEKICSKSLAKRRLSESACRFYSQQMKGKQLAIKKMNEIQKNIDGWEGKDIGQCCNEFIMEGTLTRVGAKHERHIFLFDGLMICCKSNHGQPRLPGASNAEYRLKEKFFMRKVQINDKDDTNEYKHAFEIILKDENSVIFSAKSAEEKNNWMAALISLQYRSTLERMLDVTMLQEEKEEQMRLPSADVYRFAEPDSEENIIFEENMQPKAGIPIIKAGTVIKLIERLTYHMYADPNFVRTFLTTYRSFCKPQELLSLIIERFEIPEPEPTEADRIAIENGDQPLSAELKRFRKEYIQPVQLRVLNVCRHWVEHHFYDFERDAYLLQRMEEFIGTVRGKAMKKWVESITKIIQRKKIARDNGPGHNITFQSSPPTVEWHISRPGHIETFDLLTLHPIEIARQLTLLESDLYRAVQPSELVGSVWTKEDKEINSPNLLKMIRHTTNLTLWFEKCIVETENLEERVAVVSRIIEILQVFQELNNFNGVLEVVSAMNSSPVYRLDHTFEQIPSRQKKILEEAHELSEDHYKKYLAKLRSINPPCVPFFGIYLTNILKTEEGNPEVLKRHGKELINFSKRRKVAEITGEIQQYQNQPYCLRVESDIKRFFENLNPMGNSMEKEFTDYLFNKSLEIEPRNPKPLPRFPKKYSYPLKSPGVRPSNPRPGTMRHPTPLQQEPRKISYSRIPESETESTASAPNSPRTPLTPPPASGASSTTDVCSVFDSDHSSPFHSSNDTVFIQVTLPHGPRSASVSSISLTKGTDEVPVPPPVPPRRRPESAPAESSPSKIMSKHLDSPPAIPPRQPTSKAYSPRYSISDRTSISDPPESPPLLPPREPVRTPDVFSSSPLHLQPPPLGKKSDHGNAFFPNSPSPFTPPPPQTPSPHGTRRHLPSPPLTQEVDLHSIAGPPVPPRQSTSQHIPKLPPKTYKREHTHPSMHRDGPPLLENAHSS
Where a name gives a salt, the structure may show the parent alone.
Property: IC50; scope: individual molecules
Answer in nM, number only, no unit symbol.

{"columns": ["molecule", "measuredOn", "IC50, nM"],
 "data": [
  ["CCN1CCN(c2nnc(N[C@H](C)c3cc(N)cc(C)c3F)c3cn(C4CC4)c(=O)cc23)CC1 [Example 144, formate]", "SOS1 (Homo sapiens)", 6.7]
]}

IN: Give me measured IC50, please, for this molecule: CC(C)n1cc2c(N[C@H](C)c3cccc(C(F)F)c3F)nnc(N3CCN(C)CC3)c2cc1=O [Example 114, formate]
OUT: 6

IN: Give me measured IC50, please, for this molecule: C[C@@H](Nc1nnc(N2CCC(F)(F)C2)c2cc(=O)n(C3CC3)cc12)c1cccc(C(F)F)c1F [Example 14]
OUT: 17.6

IN: Give me measured IC50, please, for this molecule: Cc1c(C#N)cccc1[C@@H](C)Nc1nnc(N2CCC(F)(F)C2)c2cc(=O)n(C3CC3)cc12 [Example 42]
OUT: 51.3

IN: Give me measured IC50, please, for this molecule: Cc1c(C#N)cccc1[C@@H](C)Nc1nnc(N2CCC(F)(F)CC2)c2cc(=O)n(C3(C)CC3)cc12 [Example 47]
OUT: 66.2

IN: Give me measured IC50, please, for this molecule: C[C@@H](Nc1nnc(N2CC[C@@H](O)C2)c2cc(=O)n(C3(C)CC3)cc12)c1cccc(C(F)F)c1F [Example 137, formate]
OUT: 4.8

IN: Give me measured IC50, please, for this molecule: C[C@@H](Nc1nnc(N2CCN(C)CC2)c2cc(=O)n(C3CC3)cc12)c1cccc(C(F)F)c1F [Example 77]
OUT: 5.9
